- System: astrocyte primary cultures from the cortex of a newborn rat
- protocol text: Cytotoxicity on the non modified astrocytes, so called healthy cells (quantitative assay)
- test parameters: second day after addition, 50 μM to 24 nM
readout kind: cytotoxicity on healthy cells (cell viability)

{"compound": "Cc1ccc(N[C@H]2[C@H]3OC(C)(C)O[C@H]3[C@@H]([C@H]3COC(C)(C)O3)O[P@@]2(=O)c2ccccc2)cc1 [Compound 3.30b]", "result": "absence of cytotoxicity"}
{"compound": "CC1(C)O[C@H]2[C@@H]([C@H]3COC(C)(C)O3)O[P@@](=O)(c3ccccc3)[C@@H](NCc3ccccc3)[C@H]2O1 [Compound 3.28]", "result": "absence of cytotoxicity"}
{"compound": "O=[N+]([O-])c1ccc([P@]2(=O)O[C@H](COCc3ccccc3)[C@@H](OCc3ccccc3)[C@H](OCc3ccccc3)C2O)cc1 (single isomer, unassigned) [Compound 3.52]", "result": "absence of cytotoxicity"}
